Reported self-cleavage values follow for various variants
B1: CPEB3 Ribozyme (parent)
chain: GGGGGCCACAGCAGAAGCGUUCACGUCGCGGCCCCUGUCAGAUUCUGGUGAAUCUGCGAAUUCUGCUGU

- Variants of: B1
- EXPERIMENT: self-cleavage, relative activity (ratio to wild type); higher = more cleavage; co-transcriptional
RECORDED_ENDPOINT: self-cleavage

>>> recorded_result("U61G U67C")
0.708
>>> recorded_result("C22U C32U")
0.33
>>> recorded_result("U46G U49A")
0.972
>>> recorded_result("G1U U44C")
0.106
>>> recorded_result("C18G A59G")
0.22
>>> recorded_result("U38A C66A")
0.721
>>> recorded_result("A23C C63G")
0.573
>>> recorded_result("G5C G37C")
0.103
>>> recorded_result("A15G U49A")
0.986
>>> recorded_result("U21C A40G")
0.719
>>> recorded_result("G2A A15C")
0.0708
>>> recorded_result("G19C C35G")
0.149
>>> recorded_result("G1A C18A")
0.0308
>>> recorded_result("C34G U61C")
0.423
>>> recorded_result("G5U U46G")
0.321
>>> recorded_result("A10U U64C")
0.778
>>> recorded_result("C12U U26C")
0.996
>>> recorded_result("C12G A40U")
0.404
>>> recorded_result("C34G G37A")
0.24
>>> recorded_result("C54A C66U")
0.911
>>> recorded_result("A59C A60C")
0.38
>>> recorded_result("A16U G17A")
0.203
>>> recorded_result("G4U C32A")
0.135
>>> recorded_result("C18G G28U")
0.129
>>> recorded_result("C45U G65U")
0.813
>>> recorded_result("A13U G31C")
0.217
>>> recorded_result("C12A C39U")
0.355
>>> recorded_result("U21C U49C")
0.868
>>> recorded_result("C39A U64C")
0.544
>>> recorded_result("C7A A23U")
0.824
>>> recorded_result("C12U A13U")
0.583
>>> recorded_result("C39U A60G")
0.667
>>> recorded_result("G37C C57U")
0.192
>>> recorded_result("A60U U69C")
0.754
>>> recorded_result("C7G A10C")
0.703
